Sequence of the target: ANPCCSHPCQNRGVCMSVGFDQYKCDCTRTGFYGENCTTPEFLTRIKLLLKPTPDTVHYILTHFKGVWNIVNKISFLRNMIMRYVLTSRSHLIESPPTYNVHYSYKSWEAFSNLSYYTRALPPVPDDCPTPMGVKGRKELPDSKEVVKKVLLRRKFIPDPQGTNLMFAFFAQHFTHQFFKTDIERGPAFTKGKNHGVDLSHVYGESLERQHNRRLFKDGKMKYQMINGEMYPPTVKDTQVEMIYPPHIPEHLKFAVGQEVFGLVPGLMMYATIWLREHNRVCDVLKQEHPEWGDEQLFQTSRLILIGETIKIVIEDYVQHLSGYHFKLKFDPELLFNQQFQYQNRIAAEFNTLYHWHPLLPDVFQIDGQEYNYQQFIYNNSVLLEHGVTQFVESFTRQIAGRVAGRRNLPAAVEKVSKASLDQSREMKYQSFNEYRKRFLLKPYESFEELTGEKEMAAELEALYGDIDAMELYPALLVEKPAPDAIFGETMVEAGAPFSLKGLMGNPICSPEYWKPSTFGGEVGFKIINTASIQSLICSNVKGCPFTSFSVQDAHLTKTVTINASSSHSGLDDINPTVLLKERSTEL
measured.property: IC50 (µM)
Could you give me the number in µM? Just the number is fine.

Could you tell me which IC50 is on file for COc1ccc2cc3[n+](cc2c1OC)CCc1cc2c(cc1-3)OCO2 [Berberine] ?
58.4

---

- assayed.target: NFAT5 (Mus musculus)
- Construct: endogenous in cells; host or cells: RAW264.7
- protocol: NFAT5 reporter screening (GFP, HCS) in LPS-treated Raw264.7 cells
- Type: cell-based
- details: 10 μM; Raw264.7 reporter, LPS 1 μg/ml, 48 hours
measured.property: Inhibition rate of NFAT5 transcription (%)
Could you give me the number in %? Just the number is fine.

Consider the following illustrative entries.
{"columns": ["chemical.string", "assayed.target", "recorded.result"],
 "data": [
  ["COc1ccc2c(Cc3c(F)cccc3F)c3n(c(=O)c2c1OC)CCc1cc2c(cc1-3)OCO2", "NFAT5 (Mus musculus)", 108.8],
  ["COc1ccc2c(Cc3ccc(F)cc3F)c3n(c(=O)c2c1OC)CCc1cc2c(cc1-3)OCO2", "NFAT5 (Mus musculus)", 24.4],
  ["COc1ccc2c(Cc3ccccn3)c3n(c(=O)c2c1OC)CCc1cc2c(cc1-3)OCO2", "NFAT5 (Mus musculus)", 67.9]
]}

Now let's try a different one.
Could you tell me which Inhibition rate of NFAT5 transcription (%) is on file for `COc1ccc2c(C(=O)Nc3ccccc3F)c3n(c(=O)c2c1OC)CCc1cc2c(cc1-3)OCO2` ?
−29.9

---

- protocol: Cytotoxicity test (WST-8), VERO
- Format: cell-based
- details: African green monkey, VERO kidney cells
Catalogue of GI50 at 24 h values
Could you give me the number in µM? Just the number is fine.

{"columns": ["compound", "GI50 at 24 h [µM]"],
 "data": [
  ["COc1ccc2c(Cc3c(F)cccc3F)c3n(c(=O)c2c1OC)CCc1cc2c(cc1-3)OCO2 [Example 3]", 84.9]
]}

Could you tell me which GI50 at 24 h is on file for COc1ccc2c(Cc3ccccc3F)c3n(c(=O)c2c1OC)CCc1cc2c(cc1-3)OCO2 [Example 1] ?
84.2

---

- protocol: Cytotoxicity test (WST-8), CHO-K1
- Type: cell-based
- details: Chinese hamster, CHO-K1 ovary cells; CHO-K1, 24 hours
measured.property: GI50 at 24 h (µM)
Could you give me the number in µM? Just the number is fine.

{"columns": ["chemical.string", "GI50 at 24 h, µM"],
 "data": [
  ["COc1ccc2c(Cc3ccccc3F)c3n(c(=O)c2c1OC)CCc1cc2c(cc1-3)OCO2", 12.1]
]}

Now let's try a different one.
Could you tell me which GI50 at 24 h is on file for `COc1ccc2c(Cc3c(F)cccc3F)c3n(c(=O)c2c1OC)CCc1cc2c(cc1-3)OCO2` ?
16.7

---

- assayed.target: NFAT5 (Mus musculus, UniProt Q9WV30)
- Construct: endogenous in cells; host or cells: RAW264.7
- Sequence (Q9WV30 whole entry): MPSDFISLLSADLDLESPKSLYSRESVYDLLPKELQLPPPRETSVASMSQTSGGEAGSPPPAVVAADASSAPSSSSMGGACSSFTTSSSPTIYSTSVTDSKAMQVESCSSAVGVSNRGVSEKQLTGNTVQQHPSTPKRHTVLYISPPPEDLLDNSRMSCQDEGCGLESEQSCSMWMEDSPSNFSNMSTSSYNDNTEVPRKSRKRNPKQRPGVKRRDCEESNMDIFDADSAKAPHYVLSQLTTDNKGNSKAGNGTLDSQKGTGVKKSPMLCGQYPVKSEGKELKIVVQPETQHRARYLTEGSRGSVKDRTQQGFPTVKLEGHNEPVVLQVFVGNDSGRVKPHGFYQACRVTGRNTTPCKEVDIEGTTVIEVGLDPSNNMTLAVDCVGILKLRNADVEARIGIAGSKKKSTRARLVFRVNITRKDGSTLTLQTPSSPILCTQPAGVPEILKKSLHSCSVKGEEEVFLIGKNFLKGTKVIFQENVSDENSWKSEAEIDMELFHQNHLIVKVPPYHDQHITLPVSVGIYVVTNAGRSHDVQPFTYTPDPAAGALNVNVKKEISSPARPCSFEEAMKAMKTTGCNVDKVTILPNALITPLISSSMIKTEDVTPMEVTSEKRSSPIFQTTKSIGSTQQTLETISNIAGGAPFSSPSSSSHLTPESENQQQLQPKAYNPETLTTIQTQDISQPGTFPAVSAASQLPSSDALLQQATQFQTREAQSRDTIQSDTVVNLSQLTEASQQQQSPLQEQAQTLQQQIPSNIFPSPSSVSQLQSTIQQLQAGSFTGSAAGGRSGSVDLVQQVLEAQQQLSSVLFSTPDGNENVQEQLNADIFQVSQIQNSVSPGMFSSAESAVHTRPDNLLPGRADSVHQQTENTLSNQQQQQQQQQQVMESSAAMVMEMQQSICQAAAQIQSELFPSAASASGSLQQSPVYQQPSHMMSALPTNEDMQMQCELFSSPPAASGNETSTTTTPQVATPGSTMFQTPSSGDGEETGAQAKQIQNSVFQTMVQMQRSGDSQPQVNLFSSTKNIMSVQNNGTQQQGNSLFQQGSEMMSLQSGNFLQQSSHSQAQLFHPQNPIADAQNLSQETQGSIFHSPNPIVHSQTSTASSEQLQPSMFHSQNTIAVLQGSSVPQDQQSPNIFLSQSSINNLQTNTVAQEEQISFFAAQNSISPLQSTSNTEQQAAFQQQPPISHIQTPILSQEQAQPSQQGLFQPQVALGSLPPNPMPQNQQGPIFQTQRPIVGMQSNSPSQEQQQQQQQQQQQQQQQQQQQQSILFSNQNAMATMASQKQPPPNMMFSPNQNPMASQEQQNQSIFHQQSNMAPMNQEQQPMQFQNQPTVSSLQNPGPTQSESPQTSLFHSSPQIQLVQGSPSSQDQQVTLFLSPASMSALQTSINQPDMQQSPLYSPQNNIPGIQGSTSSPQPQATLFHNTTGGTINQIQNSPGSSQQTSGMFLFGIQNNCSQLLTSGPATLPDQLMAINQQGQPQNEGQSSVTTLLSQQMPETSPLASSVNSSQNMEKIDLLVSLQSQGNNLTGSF
- protocol: NFAT5 reporter screening (GFP, HCS) in LPS-treated Raw264.7 cells
- Type: cell-based
- details: 10 μM; Raw264.7 reporter, LPS 1 μg/ml, 48 hours
Catalogue of Inhibition rate of NFAT5 transcription (%) values
Could you give me the number in %? Just the number is fine.

Consider the following illustrative entries.
{"columns": ["compound", "value.unit", "recorded.result"],
 "data": [
  ["COc1ccc2c(C(=O)O)c3n(c(=O)c2c1OC)CCc1cc2c(cc1-3)OCO2 [Example 11]", "%", "−12.8"],
  ["COc1ccc2c(Cc3ccccc3C)c3n(c(=O)c2c1OC)CCc1cc2c(cc1-3)OCO2 [Example 4]", "%", 88.2],
  ["COc1ccc2c(C(=O)c3ccccc3F)c3n(c(=O)c2c1OC)CCc1cc2c(cc1-3)OCO2 [Example 9]", "%", 16.4],
  ["COc1ccccc1Cc1c2n(c(=O)c3c(OC)c(OC)ccc13)CCc1cc3c(cc1-2)OCO3 [Example 5]", "%", 77.6],
  ["COc1ccc2c(Cc3ccccc3F)c3n(c(=O)c2c1OC)CCc1cc2c(cc1-3)OCO2 [Example 1]", "%", 81.2],
  ["COc1ccc2c(Cc3nc4ccccc4[nH]3)c3n(c(=O)c2c1OC)CCc1cc2c(cc1-3)OCO2 [Example 7]", "%", 28.2]
]}

Could you tell me which Inhibition rate of NFAT5 transcription (%) is on file for CCOC(=O)c1c2n(c(=O)c3c(OC)c(OC)ccc13)CCc1cc3c(cc1-2)OCO3 [Example 10] ?
53.7

Could you tell me which Inhibition rate of NFAT5 transcription (%) is on file for COc1ccc2c(C(N)=O)c3n(c(=O)c2c1OC)CCc1cc2c(cc1-3)OCO2 [Example 12] ?
−5.2

---

- assayed.target: COX1 (Ovis aries)
- Sequence (P05979 25-600): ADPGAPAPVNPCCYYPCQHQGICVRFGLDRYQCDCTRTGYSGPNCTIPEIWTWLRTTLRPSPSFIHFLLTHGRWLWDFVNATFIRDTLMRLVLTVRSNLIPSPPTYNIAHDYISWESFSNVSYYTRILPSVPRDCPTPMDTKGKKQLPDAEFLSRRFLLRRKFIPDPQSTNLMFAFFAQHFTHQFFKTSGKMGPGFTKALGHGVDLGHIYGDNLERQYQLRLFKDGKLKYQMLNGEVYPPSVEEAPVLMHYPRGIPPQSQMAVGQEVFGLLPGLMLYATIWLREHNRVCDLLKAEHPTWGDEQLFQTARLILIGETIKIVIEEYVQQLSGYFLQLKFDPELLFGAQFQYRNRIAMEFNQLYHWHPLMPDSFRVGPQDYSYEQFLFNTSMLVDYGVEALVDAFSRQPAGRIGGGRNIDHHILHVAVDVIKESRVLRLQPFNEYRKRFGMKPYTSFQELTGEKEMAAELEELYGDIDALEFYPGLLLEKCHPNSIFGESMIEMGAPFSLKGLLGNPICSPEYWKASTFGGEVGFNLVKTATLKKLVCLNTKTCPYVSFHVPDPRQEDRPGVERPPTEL
measured.property: IC50 (µM)
Could you give me the number in µM? Just the number is fine.

Could you tell me which IC50 is on file for `COc1ccc2cc3[n+](cc2c1OC)CCc1cc2c(cc1-3)OCO2` ?
96.3

---

- assayed.target: NFAT5 (Mus musculus, UniProt Q9WV30)
- Construct: endogenous in cells; host or cells: RAW264.7
- protocol: NFAT5 reporter screening (GFP, HCS) in LPS-treated Raw264.7 cells
- Assay type: cell-based
- details: 1 μM; Raw264.7 reporter, LPS 1 μg/ml, 48 hours
Catalogue of Inhibition rate of NFAT5 transcription (%) values
Could you give me the number in %? Just the number is fine.

Consider the following illustrative entries.
{"columns": ["compound", "assayed.target", "recorded.result"],
 "data": [
  ["COc1ccc2c(Cc3c(F)cccc3F)c3n(c(=O)c2c1OC)CCc1cc2c(cc1-3)OCO2 [Example 3]", "NFAT5 (Mus musculus, UniProt Q9WV30)", 24.6],
  ["COc1ccc2c(C(=O)Nc3ccccc3F)c3n(c(=O)c2c1OC)CCc1cc2c(cc1-3)OCO2 [Example 13]", "NFAT5 (Mus musculus, UniProt Q9WV30)", "−11.1"]
]}

Hello, I am looking for reported Inhibition rate of NFAT5 transcription (%) with NFAT5 (Mus musculus, UniProt Q9WV30) for COc1ccc2c(C(N)=O)c3n(c(=O)c2c1OC)CCc1cc2c(cc1-3)OCO2 [Example 12] . Could you help?
−2.9

Hello, I am looking for reported Inhibition rate of NFAT5 transcription (%) with NFAT5 (Mus musculus, UniProt Q9WV30) for COc1ccc2c(Cc3nc4ccccc4[nH]3)c3n(c(=O)c2c1OC)CCc1cc2c(cc1-3)OCO2 [Example 7] . Could you help?
18.5
